Each recorded value in this set is attributed to patent US20230090901A1.

Below is a list of entries, each paired with its recorded DELFIA ELISA response (FU) value.
- target entity: T1, L1 (DV1-GV4), soluble leucine zipper γδ TCR heterodimer of a delta variable 1 chain and a gamma variable 4 … (human)
- T1 construct: also called bt-L1; not shown: histidine tag/linker said to follow the zipper
- T1 sequence (main, as listed by the source, chain 1 of 2): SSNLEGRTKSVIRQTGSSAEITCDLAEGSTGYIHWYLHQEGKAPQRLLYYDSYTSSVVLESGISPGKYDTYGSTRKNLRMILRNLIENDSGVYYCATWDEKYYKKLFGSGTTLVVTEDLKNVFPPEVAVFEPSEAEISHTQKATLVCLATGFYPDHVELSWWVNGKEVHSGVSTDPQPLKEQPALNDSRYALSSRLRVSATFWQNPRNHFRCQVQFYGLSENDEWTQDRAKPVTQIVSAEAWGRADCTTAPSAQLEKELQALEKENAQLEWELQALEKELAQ
- T1 sequence (main, as listed by the source, chain 2 of 2): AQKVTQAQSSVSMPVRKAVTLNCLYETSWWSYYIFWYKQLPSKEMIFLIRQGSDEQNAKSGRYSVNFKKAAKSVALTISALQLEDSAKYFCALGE
- assay: DELFIA ELISA, coated antigen;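 note: binding of antibody supernatants or protein-A purified antibodies to plate-coated antigen (3 µg/ml recombinant TCR or BSA), 1 h incubation at room temperature, DELFIA readout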

{"binder": "G4_28 (antibody, human IgG1, V domains shown, also called clone G4_28) VH: QVQLVESGGGLVQPGGSLRLSCAASGFTFDDYAMHWVRQAPGKGLEWVSGISAGGGSTNYAGSVKGRFTVSRDTSKNTLYLQMNSLRAEDTAVYYCVKSYVDTAMRYYYYYMDVWGQGTMVTVSS VL: SSYELTQDPAVSVALGQTVTITCQGDSLRNYYASWYRQKPGQTPVLVVYGKNNRPSGIPDRFSVSASGNTASLTITGAQAEDEGDYYCNSRDSSGVVFGGGTKVTVLG", "DELFIA ELISA response (FU)": 227000}
{"binder": "G4_18 (antibody, human IgG1, V domains shown, also called 1254_P01_H04; clone G4_18) VH: EVQLVESGAEVKKPGASVKVSCKASGYTFTGYYMHWVRQAPGQGLEWMGRINPNSGGTNYAQKFQGRVTMTRDASISTAYMELSRLRSDDTAVYYCARDLDLSSLDYWGRGTLVTVSS VL: SSYELTQPPSVTESPGQTARITCSGDALAKQYAYWYQQKPGQAPVLVIYRDSERPSEIPERFSGSSSGTTVTLTISGVQAEDEADYYCQSADSSGTYTVFGGGTKLTVLG", "DELFIA ELISA response (FU)": 197000}
{"binder": "G4_1 (antibody, human IgG1, V domains shown, also called clone G4_1) VH: EVQLLESGGGVVQPGRPLRLSCAASGFTFSSYSMNWVRQAPGKGLEWVSSISSSSSYIYYADSVKGRFTISRDNSKNTLYLQMNSLRAEDTAVYYCAKGHWYFDLWGRGTLVTVSS VL: DIQMTQSPSSLSASVGDRVTITCQASQDISNYLNWYQQKPGKAPKLLIYDASNLETGVPSRFSGSGSGTDFTLTISSLQPEDFATYYCQQSYSTPVTFGPGTKVEIKR", "DELFIA ELISA response (FU)": 202000}
{"binder": "G4_25 (antibody, human IgG1, V domains shown, also called clone G4_25) VH: EVQLVESGAEVKKPGSSVKVSCKASGGTFSSYAISWVRQAPGQGLEWMGGIIPIFGTANYAQKFQGRVTITADKSTSTAYMELSSLRSEDTAVYYCARSLRDGYNYIGSLGYWGQGTLVTVSS VL: SQSALTQPRSVSGSPGQSVTISCTGTSSDVGGYNYVSWYQQHPGKAPKLMIYEVSNRPSGVSNRFSGSKSGNTASLTISGLQAEDEADYYCSSYGSGSVFGTGTKLTVLG", "DELFIA ELISA response (FU)": 21700}
{"binder": "G4_10 (antibody, human IgG1, V domains shown, also called clone G4_10) VH: QVQLVESGGGVVQPGRPLRLSCAASGFTFSSYAMHWVRQAPGKGLEWVSAISGSGGSTYYADSVKGRFTISRDNSKNTLYLQMNSLRAEDTAVYYCAKDGAVDFWRNGMDVWGRGTLVTVSS VL: DIVMTQPPLSLPVTLGHPASISCKSSQSLEYSDGNTYLNWFQQRPGQSPRRLIYKVSNRDSGAPDRFSGSGSGTDFTLEISRVEAEDVGVYYCMQGTLWPPTFGQGTKVDIKR", "DELFIA ELISA response (FU)": 145000}
{"binder": "G4_13 (antibody, human IgG1, V domains shown, also called clone G4_13) VH: QVQLVESGAEVKKPGGSLRLSCAASGFTFSSYSMNWVRQAPGKGLEWVSSISGTSSYIYYADSVKGRFTISRDNAKNSLYLQMSSLRAEDTAVYYCARGGLGMVDPWGQGTLVTVSS VL: SNFMLTQPHSVSESPGKTVTISCTRSSGSIASNYVQWYQQRPGSSPSTVIYEDNQRPSGVPDRFSGSIDSSSNSASLTISGLRTEDEADYYCQSYDSSIYVVFGGGTKLTVLG", "DELFIA ELISA response (FU)": 196000}
{"binder": "G4_2 (antibody, human IgG1, V domains shown, also called clone G4_2) VH: QMQLVQSGAEVKKPGATVKISCKVSGYPFTDYYIHWVQQAPGKGLEWMGLVDPEDGQSRSAERFQGRVTITADTSTDTAYMELSSLRSEDTAVYYCATFPVAGFYGMDVWGQGTLVTVSS VL: DIQMTQSPSSLSASVGDRVTITCQASQDISNYLNWYQQKPGKAPKLLIYAASSLQSGVPSRFSGSGSGTDFTLTISGLQPEDFATYYCLEDYNYLWTFGQGTKLEIKR", "DELFIA ELISA response (FU)": 201000}
{"binder": "G4_12 (antibody, human IgG1, V domains shown, also called 1140_P01_G08; clone G4_12) VH: EVQLLESGGGLVQPGGSLRLSCAASGFTVSSNYMSWVRQAPGKGLEWVSVIYSGGSTYYADSVKGRFTISRHNSKNTLYLQMNSLRAEDTAVYYCARVANGDFLDYWGRGTLVTVSS VL: SQSVLTQPASVSGSPGQSITISCTGTSSDVGGYNFVSWYQQHPGKAPKLMIYEVTNRPSGVPDRFSGSKSGNTASLTISGLQAEDEADYYCSSHASPRVFGTGTKVTVLG", "DELFIA ELISA response (FU)": 237000}
{"binder": "G4_15 (antibody, human IgG1, V domains shown, also called clone G4_15) VH: EVQLVQSEAEVKKPGASVKVSCKASGYTFTRHYMHWVRQAPGQGLEWMGLINPSGSSTVYAQKFQGRVTLTRDTSTSTDYMELSSLRSEDTAVYYCARDNSHLDQVWWFDPWGQGTLVTVSS VL: SQSALTQPASVSGSPGQSITISCTGTSSDVGGYNYVSWYQQHPGKAPKLMIYDVSNRPSGVSNRFSGSKSGNTASLTISGLQAEDEADYYCSSYGSGSVFGTGTKLTVLG", "DELFIA ELISA response (FU)": 119000}
{"binder": "G4_20 (antibody, human IgG1, V domains shown, also called 1254_P02_G02; clone G4_20) VH: QVQLVESGAEVKKPGASVKVSCKASGGTFSSYAISWVRQAPGQGLEWMGGIIPIFGTANYAQKFQGRVTITVDKSTRTAYMELSSLRSKDTAVYYCARGNSRSDAFDIWGQGTMVTVSS VL: SSYELTHPPSVSVSPGQTASITCSGDKLGDKFVSWYHQKPGQSPVLVIYQDSKRPSGIPERFSGSNSGNTATLTISGTRAMDEADYYCQAWDSSTVVFGGGTKLTVLG", "DELFIA ELISA response (FU)": 184000}
